system under test: human TLR7 (Homo sapiens, UniProt Q9NYK1)
Sequence (Q9NYK1 27-1049): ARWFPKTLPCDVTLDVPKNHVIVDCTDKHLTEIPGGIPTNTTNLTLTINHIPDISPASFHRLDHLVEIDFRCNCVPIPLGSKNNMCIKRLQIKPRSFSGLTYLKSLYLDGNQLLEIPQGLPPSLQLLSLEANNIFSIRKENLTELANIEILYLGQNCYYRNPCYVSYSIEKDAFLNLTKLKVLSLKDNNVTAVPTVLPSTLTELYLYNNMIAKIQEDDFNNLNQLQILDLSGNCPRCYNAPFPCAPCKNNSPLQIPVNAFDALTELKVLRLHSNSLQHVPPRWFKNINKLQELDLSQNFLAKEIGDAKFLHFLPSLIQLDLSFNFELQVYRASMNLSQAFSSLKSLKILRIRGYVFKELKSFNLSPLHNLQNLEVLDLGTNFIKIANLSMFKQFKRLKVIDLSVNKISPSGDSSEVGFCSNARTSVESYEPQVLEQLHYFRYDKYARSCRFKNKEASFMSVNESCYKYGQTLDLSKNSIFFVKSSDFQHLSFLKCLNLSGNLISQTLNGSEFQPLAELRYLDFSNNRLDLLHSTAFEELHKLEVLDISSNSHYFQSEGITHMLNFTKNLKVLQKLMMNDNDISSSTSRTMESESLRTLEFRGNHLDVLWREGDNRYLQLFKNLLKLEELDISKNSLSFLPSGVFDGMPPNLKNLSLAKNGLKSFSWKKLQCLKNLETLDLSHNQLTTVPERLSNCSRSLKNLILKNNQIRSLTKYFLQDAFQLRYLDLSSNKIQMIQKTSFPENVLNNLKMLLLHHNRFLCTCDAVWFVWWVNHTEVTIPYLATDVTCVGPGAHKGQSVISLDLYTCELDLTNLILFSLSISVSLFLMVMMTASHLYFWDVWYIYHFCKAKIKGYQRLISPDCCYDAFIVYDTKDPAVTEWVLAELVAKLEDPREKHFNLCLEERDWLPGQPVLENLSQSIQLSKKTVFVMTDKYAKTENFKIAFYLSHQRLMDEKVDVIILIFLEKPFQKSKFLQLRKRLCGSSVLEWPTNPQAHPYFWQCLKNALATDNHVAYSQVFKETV
method notes: Agonistic activity on human TLR7 in HEK-Blue hTLR7 cell line (QUANTI-Blue reporter)
experimental setup: HEK-Blue hTLR7 cells, 16-22 h incubation, absorption at 630 nm; read-out: EC50 value of the agonistic effect on human TLR7
Collected pEC50 values appear next to each entry.
pEC50 is a log-scale quantity: -log10 of the concentration expressed in molar.

Here are 3 compounds together with their reported answers.
[[record]]
compound = "Nc1nc2nc3c1[nH]c(=O)n3Cc1ccc(OC3CCNCC3)c(c1)C/C=C/CCO2 [Reference 1, reference compound]"
measured_result = 7.82

[[record]]
compound = "Nc1nc2nc3c1[nH]c(=O)n3Cc1ccc(Oc3ccc(CNC4CC4)cc3)c(c1)C/C=C\\CCO2 [Reference 2, reference compound]"
measured_result = 7.51

[[record]]
compound = "Nc1nc2nc3c1[nH]c(=O)n3Cc1cc(c3c(c1)CC(C(=O)O)CO3)CCCCCO2 (stereo not drawn)"
measured_result = 6.78


Please look up its pEC50: `CS(=O)(=O)CCN1CCc2c3cc(cc2C1)Cn1c(=O)[nH]c2c(N)nc(nc21)OCCCCC3`
7.06

Please look up its pEC50: `Nc1nc2nc3c1[nH]c(=O)n3Cc1cc(c3c(c1)CN(CC(=O)O)CC3)C/C=C/CCO2`
7.82

Please look up its pEC50: `Nc1nc2nc3c1[nH]c(=O)n3Cc1cc(c3c(c1)CNCC3)C/C=C/CCO2`
8.05

Please look up its pEC50: `Nc1nc2nc3c1[nH]c(=O)n3Cc1cc(c3c(c1)CN(Cc1ccncc1)CC3)CCCCCO2`
6.78

Please look up its pEC50: `Nc1nc2nc3c1[nH]c(=O)n3Cc1cc3c(c(c1)OCCCCO2)CCN(C1CCC1)C3`
7.85

Please look up its pEC50: `Nc1nc2nc3c1[nH]c(=O)n3Cc1cc(c3c(c1)CN(CC(=O)O)CC3)CCCCCO2`
7.10

Please look up its pEC50: `Nc1nc2nc3c1[nH]c(=O)n3Cc1cc(cc3c1OCC3)CCCCCO2`
6.50

Please look up its pEC50: `Nc1nc2nc3c1[nH]c(=O)n3Cc1cc(c3c(c1)C(=O)N(CC(=O)O)C3)CCCCCO2`
8.00

Please look up its pEC50: Nc1nc2nc3c1[nH]c(=O)n3Cc1cc(c3c(c1)CCC(C(=O)O)O3)CC=CCCO2 (stereo not drawn)
7.42

Please look up its pEC50: `Nc1nc2nc3c1[nH]c(=O)n3Cc1cc3c(c(c1)OC[C@@H]1C[C@H]1CO2)CCNC3`
7.51

Please look up its pEC50: `Cc1cnc(N2CCc3c4cc(cc3C2)Cn2c(=O)[nH]c3c(N)nc(nc32)OCCCCC4)nc1`
6.01

Please look up its pEC50: `Nc1nc2nc3c1[nH]c(=O)n3Cc1cc(c3c(c1)CN(CC(F)(F)F)CC3)CCCCCO2`
5.50

---

system under test: human TLR7 (Homo sapiens, UniProt Q9NYK1)
Sequence (Q9NYK1 27-1049): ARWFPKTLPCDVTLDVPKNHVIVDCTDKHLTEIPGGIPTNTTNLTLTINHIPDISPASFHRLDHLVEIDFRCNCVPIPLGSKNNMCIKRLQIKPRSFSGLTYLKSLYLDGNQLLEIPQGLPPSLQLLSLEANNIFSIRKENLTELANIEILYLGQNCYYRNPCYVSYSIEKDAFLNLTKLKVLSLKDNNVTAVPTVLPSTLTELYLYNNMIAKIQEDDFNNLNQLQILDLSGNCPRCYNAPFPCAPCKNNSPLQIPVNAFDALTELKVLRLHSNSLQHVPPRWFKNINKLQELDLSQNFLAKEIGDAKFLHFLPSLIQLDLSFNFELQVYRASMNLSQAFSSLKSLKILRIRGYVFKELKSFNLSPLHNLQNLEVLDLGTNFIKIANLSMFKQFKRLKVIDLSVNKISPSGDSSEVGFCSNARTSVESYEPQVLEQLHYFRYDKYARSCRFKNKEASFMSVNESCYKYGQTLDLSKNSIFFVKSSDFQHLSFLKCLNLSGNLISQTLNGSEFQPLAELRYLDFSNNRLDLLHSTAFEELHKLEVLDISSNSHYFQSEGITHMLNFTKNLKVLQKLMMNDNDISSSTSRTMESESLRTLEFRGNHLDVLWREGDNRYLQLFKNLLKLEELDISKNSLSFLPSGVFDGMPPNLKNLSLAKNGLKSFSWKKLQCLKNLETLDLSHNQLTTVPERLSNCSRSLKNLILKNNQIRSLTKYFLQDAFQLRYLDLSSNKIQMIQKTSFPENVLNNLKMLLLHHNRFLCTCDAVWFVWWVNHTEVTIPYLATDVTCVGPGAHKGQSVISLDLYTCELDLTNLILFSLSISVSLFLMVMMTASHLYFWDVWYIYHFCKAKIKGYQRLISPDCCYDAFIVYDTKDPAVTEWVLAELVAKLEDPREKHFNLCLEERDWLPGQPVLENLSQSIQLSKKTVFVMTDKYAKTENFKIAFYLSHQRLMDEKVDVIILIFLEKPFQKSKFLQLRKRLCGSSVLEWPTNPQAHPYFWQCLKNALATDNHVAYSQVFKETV
method notes: Agonistic activity on human TLR7 in HEK-Blue hTLR7 cell line (QUANTI-Blue reporter)
experimental setup: HEK-Blue hTLR7 cells, 16-22 h incubation, absorption at 630 nm; read-out: EC50 value of the agonistic effect on human TLR7
Note that class boundaries on EC50 are LOW = under 30 nM, MID = from 30 nM up to 80 nM, HIGH = 80 nM and over

Examples with answers:
[[record]]
compound = "Nc1nc2nc3c1[nH]c(=O)n3Cc1cc(c3c(c1)CNCC3)CCCCCCO2"
assigned_label = "HIGH"

[[record]]
compound = "Nc1nc2nc3c1[nH]c(=O)n3Cc1cc(c3c(c1)CCNC3)C/C=C\\CCO2"
assigned_label = "LOW"

[[record]]
compound = "Nc1nc2nc3c1[nH]c(=O)n3Cc1cc(cc3c1CNCC3)OCCCCO2"
assigned_label = "HIGH"

[[record]]
compound = "Nc1nc2nc3c1[nH]c(=O)n3Cc1cc(c3c(c1)CCN(CC(=O)O)C3)CCCCCO2"
assigned_label = "HIGH"

[[record]]
compound = "CC(C)(CN1CCc2c3cc(cc2C1)Cn1c(=O)[nH]c2c(N)nc(nc21)OCCCCC3)C(=O)O"
assigned_label = "MID"


Attention now turns to another entry.
Which of the defined bands does the recorded EC50 of `Nc1nc2nc3c1[nH]c(=O)n3Cc1cc3c(c(c1)OC[C@@H]1CC[C@H]1CO2)CCNC3` sit within?
MID

---

system under test: human TLR7 (Homo sapiens)
method notes: Agonistic activity on human TLR7 in HEK-Blue hTLR7 cell line (QUANTI-Blue reporter)
experimental setup: HEK-Blue hTLR7 cells, 16-22 h incubation, absorption at 630 nm; read-out: EC50 value of the agonistic effect on human TLR7
quantity: EC50 (nM)
Give your result in nM as a bare value.

Here are 10 molecules together with their reported answers.
[[record]]
molecule = "Nc1nc2nc3c1[nH]c(=O)n3Cc1cc(c3c(c1)CN(C1CCC1)CC3)CCCCCS2(=O)=O [Compound I-62]"
system_under_test = "human TLR7 (Homo sapiens)"
quantity = "EC50"
measured_result = 13

[[record]]
molecule = "Nc1nc2nc3c1[nH]c(=O)n3Cc1cc3c(c(c1)OCCCCO2)CCNC3 [Compound I-31]"
system_under_test = "human TLR7 (Homo sapiens)"
quantity = "EC50"
measured_result = 39

[[record]]
molecule = "Nc1nc2nc3c1[nH]c(=O)n3Cc1cc3c(c(c1)OCCCO2)CCNC3 [Compound I-30]"
system_under_test = "human TLR7 (Homo sapiens)"
quantity = "EC50"
measured_result = 75

[[record]]
molecule = "CN1CCC=CCc2cc(cc3c2CN(C(C)(C)C)C3=O)Cn2c(=O)[nH]c3c(N)nc1nc32 [Compound I-58]"
system_under_test = "human TLR7 (Homo sapiens)"
quantity = "EC50"
measured_result = 1100

[[record]]
molecule = "Nc1nc2nc3c1[nH]c(=O)n3Cc1cc(c3c(c1)CCN(CC(=O)O)C3)CC=CCCO2 [Compound I-24]"
system_under_test = "human TLR7 (Homo sapiens)"
quantity = "EC50"
measured_result = 84

[[record]]
molecule = "Nc1nc2cc3c1[nH]c(=O)n3Cc1cc(c3c(c1)CNCC3)C/C=C/CCO2 [Compound I-34]"
system_under_test = "human TLR7 (Homo sapiens)"
quantity = "EC50"
measured_result = 132

[[record]]
molecule = "Nc1nc2nc3c1[nH]c(=O)n3Cc1cc(c3c(c1)C(=O)N(CCN1CCCC1)C3)C/C=C/CCO2 [Compound I-7]"
system_under_test = "human TLR7 (Homo sapiens)"
quantity = "EC50"
measured_result = 8

[[record]]
molecule = "Nc1nc2nc3c1[nH]c(=O)n3Cc1cc(c3c(c1)CC(C(=O)O)O3)CCCCCO2 (stereo not shown) [Compound I-17]"
system_under_test = "human TLR7 (Homo sapiens)"
quantity = "EC50"
measured_result = 167

[[record]]
molecule = "Nc1nc2nc3c1[nH]c(=O)n3Cc1cc(c3c(c1)C(=O)N(CCN1CCCC1)C3)C/C=C\\CCO2 [Compound I-6]"
system_under_test = "human TLR7 (Homo sapiens)"
quantity = "EC50"
measured_result = 2

[[record]]
molecule = "CC(C)N1CCc2c3cc(cc2C1)Cn1c(=O)[nH]c2c(N)nc(nc21)OCCCCC3 [Compound I-35]"
system_under_test = "human TLR7 (Homo sapiens)"
quantity = "EC50"
measured_result = 10


Please look up its EC50: COCCN1CCc2c3cc(cc2C1)Cn1c(=O)[nH]c2c(N)nc(nc21)OCCCCC3 [Compound I-48]
11

Please look up its EC50: Nc1nc2nc3c1[nH]c(=O)n3Cc1cc(c3c(c1)CC(C(=O)O)O3)CC=CCCO2 (stereo not shown) [Compound I-16]
17

Source of measurements: patent US20240124486A1
